# subject.of.test: T1, human ACVR2A (human, UniProt P27037 20-135, limits assumed)
# T1 construct: also called activin receptor, type II A
# experimental.details: ELISA; note: test concentration or dose not given here
# Experimental: The binding of ACVR2A-specific monoclonal antibodies to human ACVR2A, mouse ACVR2A, biotinylated goat anti-human kappa light chain (positive control) and human Fc (negative control) were determined by ELISA.
quantity: optical density (OD)
Value expressed in OD; do not type the unit.

binder	optical density [OD]
370_B01 (antibody, V domains shown, Group I) VH: EVQLLESGGGLVQPGGSLRLSCAASGFTFDDYGMHWVRQAPGKGLEWVSGINYNGGYKSYADSVKGRFTISRDNSKNTLYLQMNSLRAEDTAVYYCARAANWHDTALDYWGQGTLVTVSS VL: DIQMTQSPSSLSASVGDRVTITCRASQSILSYVNWYQQKPGKAPKLLIYVASSRASGVPSRFSGSGSGTDFTLTISSLQPEDFATYYCQQSYSLPLTFGGGTKVEIK	3.38

Moving on to the next binder.
[Q] Look up optical density for this binder: 368_C07 (antibody, V domains shown, Group II) VH: EVQLLESGGGLVQPGGSLRLSCAASGFTFSSYGMHWVRQAPGKGLEWVAGINYNSGYTSYADSVKGRFTISRDNSKNTLYLQMNSLRAEDTAVYYCARAATWHDTHLDYWGQGTLVTVSS VL: DIQMTQSPSSLSASVGDRVTITCRASQSIVSYVNWYQQKPGKAPKLVIYAATSRASGVPSRFSGSGSGTDFTLTISSLQPEDFATYYCQQSYENPLTFGGGTKVEIK
[A] 2.58
